// provenance: paper PMC4405178

Biological target: T1, C-terminally truncated wild-type Ste2p (Saccharomyces cerevisiae, UniProt D6VTK4 1-303)
T1 sequence (looked up): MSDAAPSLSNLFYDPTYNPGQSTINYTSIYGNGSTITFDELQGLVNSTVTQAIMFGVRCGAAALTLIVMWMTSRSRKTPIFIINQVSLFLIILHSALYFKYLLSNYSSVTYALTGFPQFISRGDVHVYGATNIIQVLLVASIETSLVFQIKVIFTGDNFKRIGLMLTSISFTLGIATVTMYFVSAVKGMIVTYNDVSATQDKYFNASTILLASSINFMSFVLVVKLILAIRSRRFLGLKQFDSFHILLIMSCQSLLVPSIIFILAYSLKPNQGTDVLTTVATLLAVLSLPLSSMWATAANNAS
Assay: flow cytometry on cells
pKd: −log10 of the molar value.
OBSERVABLE: pKd

[[record]]
binder = "WHWLQLKPGQPMY (NBD (7-nitrobenz-2-oxa-1,3-diazol-4-yl) conjugated to the lysine at position 7; norleucine at position 12 in place of methionine) [[K^7(NBD),Nle^12] α-factor]"
observable = "pKd"
observed_measurement = 7.35

